# measurement-notes: Determination of the log P values by HPLC (formic acid method)
# Assay type: physicochemical
# assay-context: reversed-phase column (C 18), acidic range (pH 3.4), 55° C.
measured-endpoint: log P

• O=C(Nc1ccn(-c2ccccc2Cl)n1)c1cccnc1C(F)(F)F = 2.48
• O=C(Nc1nn(-c2ncc(F)cc2F)cc1[N+](=O)[O-])c1ccccc1C(F)(F)F = 2.63
• Cn1cc(C(=O)Nc2cnn(-c3c(F)cccc3F)n2)c(C(F)F)n1 = 2.22
• CCc1ccccc1C(=O)Nc1ccn(-c2ncc(F)cc2F)n1 = 2.69
• O=C(Nc1ccn(-c2ncc(Cl)cc2Cl)n1)c1cccc(F)c1C(F)(F)F = 2.61
• O=C(Nc1ccn(-c2ccccc2Cl)n1)c1ccccc1F = 2.89
• O=C(Nc1ccn(-c2c(F)cccc2F)n1)c1cc(F)ccc1C(F)(F)F = 2.80
• Cc1cn(-c2ccccc2Cl)nc1NC(=O)c1ccccc1Cl = 2.80
• CCn1nc(C)c(Br)c1C(=O)Nc1ccn(-c2c(F)cccc2F)n1 = 3.15
• O=C(Nc1ccn(-c2cccc(F)c2F)n1)c1ccccc1Cl [Compound I-1-66] = 3.02
• O=C(Nc1ccn(-c2ccccc2F)n1)c1ccccc1Br = 2.78
• CCn1nc(C)c(Br)c1C(=O)Nc1ccn(-c2ncc(F)cc2F)n1 = 2.93
• O=C(Nc1ccn(-c2ncc(F)cc2F)n1)C1=C(C(F)(F)F)OCCS1 = 2.35
• N#Cc1cncnc1-n1ccc(NC(=O)c2ccccc2C(F)(F)F)n1 = 2.34
• Cn1ncc(Br)c1C(=O)Nc1ccn(-c2c(F)cccc2F)n1 = 2.50
• O=C(Nc1ccn(-c2c(F)cccc2F)n1)C1=C(C(F)F)OCCS1 = 2.53
